System: HepG2-derived hepatoblastoma cell line (HEPDES19)
Test: Cytotoxicity assay (CC50), MTS
Format: cell-based, human
Conditions: HEPDES19 cells
measure_name: CC50 (µM)
The reply should contain only the number, in µM.

What measured CC50 is associated with Cc1ccc(S(=O)(=O)Oc2cc(C(C)C)cccc2=O)cc1 [Compound 688] on HepG2-derived hepatoblastoma cell line (HEPDES19)? 27.5

Queued: CC1=C(C#N)C(O)=NC(=O)/C1=C\c1ccc(-c2ccccc2)o1 [Compound 140] 42

###

Tested on: Staphylococcus hominis
Type: cell-based
Settings: Sh1 (Staphylococcus hominis)
measure_name: Antibiotic susceptibility

Known Antibiotic susceptibility results, listed for orientation:
molecule_smiles	reading
CN(C)[C@@H]1C(O)=C(C(N)=O)C(=O)[C@@]2(O)C(O)=C3C(=O)c4c(O)cccc4[C@@](C)(O)[C@H]3C[C@@H]12	R
CCC[C@@H]1C[C@@H](C(=O)N[C@@H]([C@H]2O[C@H](SC)[C@H](O)[C@@H](O)[C@H]2O)[C@H](C)Cl)N(C)C1	S
Cc1onc(-c2ccccc2)c1C(=O)N[C@@H]1C(=O)N2[C@@H]1SC(C)(C)[C@@H]2C(=O)O	R
C[C@H]1COc2c(N3CCN(C)CC3)c(F)cc3c(=O)c(C(=O)O)cn1c23	R

Okay, now this compound:
// returns reported Antibiotic susceptibility for input `CC[C@H]1OC(=O)[C@H](C)[C@@H](O[C@H]2C[C@@](C)(OC)[C@@H](O)[C@H](C)O2)[C@H](C)[C@@H](O[C@@H]2O[C@H](C)C[C@H](N(C)C)[C@H]2O)[C@](C)(O)C[C@@H](C)C(=O)[C@H](C)[C@@H](O)[C@]1(C)O` R

###

System: S. aureus ATCC strains and MRSA
Assay type: cell-based, Staphylococcus aureus
Conditions: Sa1 (MRSA)
measure_name: Antibiotic susceptibility

Known Antibiotic susceptibility results, listed for orientation:
molecule	Antibiotic susceptibility
C[C@H]1COc2c(N3CCN(C)CC3)c(F)cc3c(=O)c(C(=O)O)cn1c23 [LVX, levofloxacin]	R
CCCCCCCCCC(=O)N[C@@H](Cc1c[nH]c2ccccc12)C(=O)N[C@H](CC(N)=O)C(=O)N[C@@H](CC(=O)O)C(=O)N[C@@H]1C(=O)NCC(=O)N[C@@H](CCCN)C(=O)N[C@@H](CC(=O)O)C(=O)N[C@H](C)C(=O)N[C@@H](CC(=O)O)C(=O)NCC(=O)N[C@H](CO)C(=O)N[C@@H]([C@H](C)CC(=O)O)C(=O)N[C@@H](CC(=O)c2ccccc2N)C(=O)O[C@@H]1C [DAP, daptomycin]	S
Cc1onc(-c2ccccc2)c1C(=O)N[C@@H]1C(=O)N2[C@@H]1SC(C)(C)[C@@H]2C(=O)O [OXA, Oxacillin]	R
CCC[C@@H]1C[C@@H](C(=O)N[C@@H]([C@H]2O[C@H](SC)[C@H](O)[C@@H](O)[C@H]2O)[C@H](C)Cl)N(C)C1 [CLI, clindamycin]	R
CN[C@H](CC(C)C)C(=O)N[C@H]1C(=O)N[C@@H](CC(N)=O)C(=O)N[C@H]2C(=O)N[C@H]3C(=O)N[C@H](C(=O)N[C@H](C(=O)O)c4cc(O)cc(O)c4-c4cc3ccc4O)[C@H](O)c3ccc(c(Cl)c3)Oc3cc2cc(c3O[C@@H]2O[C@H](CO)[C@@H](O)[C@H](O)[C@H]2O[C@H]2C[C@](C)(N)[C@H](O)[C@H](C)O2)Oc2ccc(cc2Cl)[C@H]1O [VAN, vancomycin]	S
COc1c(N2C[C@@H]3CCCN[C@@H]3C2)c(F)cc2c(=O)c(C(=O)O)cn(C3CC3)c12 [MXF, moxifloxacin]	R
CN(C)[C@@H]1C(O)=C(C(N)=O)C(=O)[C@@]2(O)C(O)=C3C(=O)c4c(O)cccc4[C@@](C)(O)[C@H]3C[C@@H]12 [TET, Tetracycline]	S

Okay, now this molecule:
// returns reported Antibiotic susceptibility for input C[C@H]1c2cccc(O)c2C(=O)C2=C(O)[C@]3(O)C(=O)C(C(N)=O)=C(O)[C@@H](N(C)C)[C@@H]3[C@@H](O)[C@@H]21 [DOX, doxycycline] S

###

System: MDR E. coli
Format: cell-based
Conditions: Ec4 (E. coli)
measure_name: Antibiotic susceptibility

molecule_smiles	measure_name	reading
C[C@@H](O)[C@H]1C(=O)N2C(C(=O)O)=C(SCCN=CN)C[C@H]12	Antibiotic susceptibility	S
CO/N=C(\C(=O)N[C@@H]1C(=O)N2C(C(=O)O)=C(CSc3nc(=O)c(=O)[nH]n3C)CS[C@H]12)c1csc(N)n1	Antibiotic susceptibility	R
Cc1nnc(SCC2=C(C(=O)O)N3C(=O)[C@@H](NC(=O)Cn4cnnn4)[C@H]3SC2)s1	Antibiotic susceptibility	R

Each recorded value in this set is attributed to patent US12502362B2.
